- Test system: RPMI-8226 leukemia
- assay-summary: NCI-60 one-dose screen, 48 h (100 = growth as untreated, 0 = no growth, -100 = all killed)
- experimental-parameters: 10 µM unless noted
The panel holds about 83,000 compounds, 20% with a hit somewhere; the sample as a whole holds those more often.
Would you kindly list growth for each of these compounds?
Numbers only, in %.

Example entries begin here.
{"columns": ["compound", "parameter", "reported-measurement"],
 "data": [
  ["CC(=O)Nc1ccc(/C=C/C(=O)c2ccccc2)cc1", "growth", -8.05],
  ["COc1ccc(-c2[nH]nc(N)c2-c2cc(OC)c3c(c2)OCO3)cc1", "growth", 81.3],
  ["COc1ccc(/C=C(\\C#N)c2cc(OC)c3c(c2)OCO3)cc1", "growth", 28.6]
]}

List growth for every entry below, keeping the order given.
1. Cc1ccc2nc(Cl)cc(=O)n2c1
2. O=C1Nc2ccc(Cl)cc2C12Nc1cc(Cl)ccc1S2 (stereo unspecified)
3. NC(N)=N/N=C/c1ccc(-c2ccc(-c3cc(Cl)cc(Cl)c3)s2)cc1

Output:
1. 96.1
2. 44.3
3. -9.01

----------
- Test system: TK-10 renal
- assay-summary: NCI-60 one-dose screen, 48 h
- experimental-parameters: 10 µM unless noted
Compounds without any hit were thinned out: in the full panel of roughly 83,000, 20% have a hit. Active and inactive are the calls of the source. How the source made its calls: active means growth percent below 10; inactive means the rest.
Can you answer with just one of these options? active, inactive

Solved cases (3 shown):
{"columns": ["molecule", "test-target", "category"],
 "data": [
  ["CC(=O)c1cc2c(N)c(C(=O)Nc3cccc4c3OCCO4)sc2nc1C", "TK-10 renal", "inactive"],
  ["COc1ccc(NC(=O)c2cc(OC)c(OC)c(OC)c2)cc1O", "TK-10 renal", "inactive"],
  ["S=c1[nH]nc(-c2cc3ccc2CCc2ccc(cc2)CC3)n1-c1ccccc1", "TK-10 renal", "active"]
]}

Task: Field: outcome | Entry: CC(=O)OC[C@]12CC[C@H]3[C@@H](C[C@H]4O[C@]45CC=CC(=O)[C@]35C)[C@]1(O)CC[C@@]2(O)[C@@](C)(O)C1CC(C)=C(C)C(=O)O1 (stereo not given in full)
Output: active

Task: Please share the test call associated with `Cc1ccc(NS(=O)(=O)c2cc(C)ccc2C)cc1` .
Output: inactive

----------
Please provide measured growth for the entries that follow.
- Test system: SK-MEL-28 melanoma
- assay-summary: NCI-60 one-dose screen, 48 h (100 = growth as untreated, 0 = no growth, -100 = all killed)
- experimental-parameters: 10 µM unless noted
Compounds without any hit were thinned out: in the full panel of roughly 83,000, 20% have a hit.
Numbers only, in %.

List growth for every entry below, keeping the order given.
1. C=C1CCC2C3(C)COC(c4c(OC)cccc4OC)OC3CCC2(C)C1C/C=C1/C(=O)OCC1O (stereo not given)
2. CC(C)(C)NCCC(O)c1cc2c(Cl)cc(Cl)cc2c2cc(C(F)(F)F)ccc12 (stereo not given)

Output:
[97.3, -91.6]

// batch mode: one growth value per listed entry
1. C=C1CCC[C@]2(C)CCC[C@H](C)[C@@H](OC(C)=O)[C@@H]3OC(=O)C(=C)[C@@H]3C[C@H]1O2
2. COc1cc(/C=C/C(=O)/C=C/c2cc(OC)c3c(c2)OCO3)cc2c1OCO2
3. COc1ccc2[nH]c(=O)c(/C=N/Nc3nc(-c4ccccc4)cs3)c(O)c2c1
4. O=C(Nc1ccc2c(c1)OCCO2)C(=O)c1c[nH]c2ccccc12
5. COc1ccc(-c2ccc(-c3ccc(C(=N)N)s3)s2)cc1Cl
6. Oc1ccc2cc(Br)ccc2c1-c1c(O)ccc2cc(Br)ccc12
7. O=C(O)COc1ccc(-c2cssc2=S)cc1
8. CCOC(=O)c1ccc2c(c1)c1c(C)c3cccnc3c(C)c1n2C

Output:
95.2
119
76
53
90.1
65.5
108
85.3

Could I get growth for every one of these entries?
1. CN1C(=O)N(C)C2C1NN=c1s/c(=C\c3cccnc3)c(=O)n12 (stereo not given)
2. CC1CCC(C)N(C)C1 (stereo not given)
3. C1=Cc2ccccc2N(c2nnc(-c3ccccc3)o2)c2ccccc21
4. CC(C)(C)n1cc(-c2ccnc(NCCNS(=O)(=O)c3ccc(C(F)(F)F)cc3)c2)c(-c2cccc(O)c2)n1
5. CCc1ccc(-c2ccc(=O)n(-c3ccc(S(N)(=O)=O)cc3)n2)cc1

Output:
1: 81.5; 2: 107; 3: 98.2; 4: 51.3; 5: 49.4

Give measured growth for every item shown.
1. CCOC(=O)c1c(/N=C2\SC(=O)/C(=C\C(=O)OC)N2NC)sc2c1CCN(C(=O)OCC)C2
2. NC1N=C(SCC(=O)N2CCN(c3cc4c(cc3F)c(=O)c(C(=O)O)cn4C3CC3)CC2)NC(=O)/C1=C/c1ccc(Cl)cc1 (stereo not given)
3. O=C1NN(C(=O)c2ccc(Cl)cc2)C(c2ccccc2)=N/C1=C\c1ccc(F)cc1
4. COc1cc2c(cc1OCCCCCn1c3ccccc3c3ccccc31)N=C[C@@H]1CCCN1C2=O

Output:
1: 101; 2: 110; 3: 107; 4: -78.8

Provide growth for all items below, preserving their order.
1. O=c1c2sc3ncccc3c2nnn1-c1ccccc1
2. c1coc(CNc2ccnc(Nc3ccc(OCCN4CCCCC4)cc3)n2)c1
3. Nc1nc(Nc2cc(Cl)cc(Cl)c2)nn1S(=O)(=O)c1ccc2ccccc2c1
4. C=C(C)[C@@H]1CC[C@]2(C(=O)O)CC[C@]3(C)[C@H](CC[C@@H]4[C@@]5(C)C[C@@H](CC#Cc6ccc(C(F)(F)F)cc6)[C@H](O)C(C)(C)[C@@H]5CC[C@]43C)[C@@H]12
5. CCOC(=O)CC(=O)OC
6. CC(C)(C)n1cc(-c2ccnc(NCCNS(=O)(=O)c3ccc(F)cc3)c2)c(-c2cccc(O)c2)n1
7. CC(=O)c1cc2c(N)c(C(=O)Nc3cccc4c3OCCO4)sc2nc1C

Output:
1: 109; 2: 107; 3: 84.8; 4: -40.8; 5: 104; 6: 52.4; 7: 94

Please give growth, item by item, for the list that follows.
1. CCN1C(=O)N(CC)C2C1NN=c1s/c(=C\c3cccnc3)c(=O)n12 (stereo not given)
2. N=C(N)c1ccc(-c2cc(Cl)cc(Cl)c2)cn1
3. C=C1C(=O)O[C@H]2[C@H]1CC/C(Cn1cc(CNC(=O)/C=C/c3c[nH]c4ccccc34)nn1)=C\CC[C@@]1(C)O[C@@H]21
4. CCCN=C1NC(=O)/C(=C/c2nc(-c3ccc(OC)cc3)n3ccccc23)S1
5. CN(C)c1nc2c(N)ncnc2n1C1OC(CO)C(O)C1O (stereo not given)

Output:
[51.8, 97.3, 91.7, 111, 122]

Value sought for every listed molecule: growth.
1. NNc1cccc(/C=C/c2ccccc2)cc1=O
2. c1cc(C2=N[C@@H]3c4ccccc4C[C@@H]3O2)nc(C2=N[C@@H]3c4ccccc4C[C@@H]3O2)c1
3. COc1ccc(C2CC(c3ccc(OC)cc3OC)=NN2c2ccc(S(N)(=O)=O)cc2)cc1 (stereo not given)
4. O=C1Nc2ccc(Cl)cc2C12Nc1cc(Cl)ccc1S2 (stereo not given)

Output:
[81.9, 108, 125, 110]

Can you give me growth for all of these, one by one?
1. CCOC(=O)c1cc(C(=O)c2cc(OC)c(OC)c(OC)c2)n2c1ccc1ccccc12
2. CCN(CC)c1ccc2[nH]c3c(C(N)=O)cc(=O)c(=O)c=3oc2c1
3. CN(C)CC(C(=O)c1ccccc1)c1ccccc1 (stereo not given)
4. Nc1cccc(-c2nc3sccn3c2-c2ccnc(NCCNS(=O)(=O)c3ccc(C(F)(F)F)cc3)n2)c1

Output:
[55.9, 13.2, 61, 82.2]

Task: I have this molecule here, `CCCCN(CCCC)C(=O)CC` , and I need its recorded growth.
Output: 114
